- EXPERIMENTAL TARGET: T1, hCD112R mFC recombinant protein (human; murine, UniProt Q6DKI7 41-160)
- T1 construct: range 41-160; expressed in 293E cells; also called hCD112R ECD mFC; hCD112R-ECD-mFC; not shown: murine IgG2a Fc domain (MX2-mFc vector)
- T1 sequence (looked up): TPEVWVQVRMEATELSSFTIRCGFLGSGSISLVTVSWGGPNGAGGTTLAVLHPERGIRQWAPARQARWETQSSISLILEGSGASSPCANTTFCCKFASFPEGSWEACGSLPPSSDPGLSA
- METHOD DESCRIPTION: ELISA, coated hCD112R-ECD-mFC; EC50 COM701/EC50 antibody

| BINDER | Relative activity (%) |
| --- | --- |
| Hu22 (antibody, IgG4, V domains shown, humanized IgG4) VH: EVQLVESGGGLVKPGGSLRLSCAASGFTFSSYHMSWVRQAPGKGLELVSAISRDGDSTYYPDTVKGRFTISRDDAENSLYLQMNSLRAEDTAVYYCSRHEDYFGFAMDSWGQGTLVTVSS VL: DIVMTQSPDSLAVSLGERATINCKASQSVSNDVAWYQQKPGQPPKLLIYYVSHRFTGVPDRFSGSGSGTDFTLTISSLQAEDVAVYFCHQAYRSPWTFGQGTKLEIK | 156 |
| Hu10 (antibody, IgG4, V domains shown, humanized IgG4) VH: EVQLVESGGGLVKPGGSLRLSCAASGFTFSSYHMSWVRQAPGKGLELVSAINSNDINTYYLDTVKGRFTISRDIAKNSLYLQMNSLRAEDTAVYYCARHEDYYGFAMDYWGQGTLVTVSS VL: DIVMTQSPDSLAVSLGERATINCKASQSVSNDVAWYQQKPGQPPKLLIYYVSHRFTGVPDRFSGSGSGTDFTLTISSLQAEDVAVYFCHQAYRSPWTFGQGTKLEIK | 153 |
| Hu51 (antibody, IgG4, V domains shown, humanized IgG4) VH: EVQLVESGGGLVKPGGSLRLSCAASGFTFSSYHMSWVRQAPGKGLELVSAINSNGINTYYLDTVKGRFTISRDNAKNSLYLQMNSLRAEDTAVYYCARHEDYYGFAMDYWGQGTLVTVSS VL: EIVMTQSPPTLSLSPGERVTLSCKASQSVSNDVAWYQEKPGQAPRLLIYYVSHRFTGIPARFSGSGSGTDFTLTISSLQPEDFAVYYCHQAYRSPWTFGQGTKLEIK | 138 |
| Hu4 (antibody, IgG4, V domains shown, humanized IgG4; also called Hu-04) VH: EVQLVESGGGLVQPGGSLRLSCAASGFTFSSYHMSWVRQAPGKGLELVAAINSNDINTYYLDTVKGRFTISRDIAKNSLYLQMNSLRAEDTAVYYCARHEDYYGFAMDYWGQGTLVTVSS VL: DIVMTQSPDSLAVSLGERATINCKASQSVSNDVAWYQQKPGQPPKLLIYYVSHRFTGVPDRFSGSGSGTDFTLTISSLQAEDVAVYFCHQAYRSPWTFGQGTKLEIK | 144 |
| Hu28 (antibody, IgG4, V domains shown, humanized IgG4) VH: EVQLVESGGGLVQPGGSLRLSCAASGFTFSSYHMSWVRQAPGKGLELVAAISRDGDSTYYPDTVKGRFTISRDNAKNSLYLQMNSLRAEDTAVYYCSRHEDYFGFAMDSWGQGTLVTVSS VL: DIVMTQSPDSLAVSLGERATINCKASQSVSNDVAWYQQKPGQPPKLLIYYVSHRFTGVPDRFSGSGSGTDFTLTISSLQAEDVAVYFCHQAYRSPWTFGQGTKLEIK | 127 |
